Every entry's value here was drawn from PubChem BioAssay AID1672.

molecular target: Inward rectifier potassium channel 2 (Mus musculus); experiment: inhibitors of mouse Kir2.1 inward-rectifier potassium channel (AID 1672); details: HEK293-Kir2.1, FluxOR thallium flux fluorescence; at 10 µM; active compounds read low;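 further: channel flux triggered by added potassium and thallium sulfate stimulus; B-score of peak minus minimum fluorescence over baseline after thallium stimulus; more negative B-score means stronger Kir2.1 block with less thallium influx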
Out of some 310,000 compounds screened, about 2,600 (0.84%) were called active. The list comes from a sample in which actives are over-represented; it also holds close analogues and randomly drawn compounds.
Exercise: state measured B-score for each of the compounds provided.
Kindly provide the number alone.

B-score in this record for COc1ccc(CNCCc2c[nH]c3ccccc23)cc1OC : 0.17

The recorded B-score for COc1ccccc1C1=NCc2nnc(CSC)n2-c2ccc(Cl)cc21 is 0.29

compound COc1ccc2c(c1O)-c1cccc3c1[C@@H](C2)N(C)CC3 , B-score observed: -0.89

* * *

molecular target: Inward rectifier potassium channel 2 (Mus musculus) (UniProt P35561); assay: inhibitors of mouse Kir2.1 inward-rectifier potassium channel (AID 1672); settings: HEK293-Kir2.1, FluxOR thallium flux fluorescence; at 10 µM; active compounds read low;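 further: channel flux triggered by added potassium and thallium sulfate stimulus; B-score of peak minus minimum fluorescence over baseline after thallium stimulus; more negative B-score means stronger Kir2.1 block with less thallium influx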
Sequence (P35561 whole entry, looked up): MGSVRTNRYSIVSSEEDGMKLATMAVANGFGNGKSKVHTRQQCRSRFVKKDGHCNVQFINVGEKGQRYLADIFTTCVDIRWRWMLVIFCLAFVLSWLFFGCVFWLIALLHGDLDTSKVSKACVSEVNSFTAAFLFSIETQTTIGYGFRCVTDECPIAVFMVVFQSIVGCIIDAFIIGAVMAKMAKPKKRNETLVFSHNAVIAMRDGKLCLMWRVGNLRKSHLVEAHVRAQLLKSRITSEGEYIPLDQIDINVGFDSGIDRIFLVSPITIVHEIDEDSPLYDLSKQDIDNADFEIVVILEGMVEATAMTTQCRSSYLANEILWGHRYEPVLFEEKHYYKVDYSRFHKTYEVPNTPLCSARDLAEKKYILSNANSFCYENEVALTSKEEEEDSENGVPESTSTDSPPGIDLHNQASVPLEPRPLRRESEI
Out of some 310,000 compounds screened, about 2,600 (0.84%) were called active. The sample as a whole holds a higher share of actives than the screen did.
Mark Condition met for B-score under -0.7, Condition not met if at or over.

Hi there! Is B-score for Cc1ccc(S(=O)(=O)N(C)c2ccc(C(=O)NCC3(N(C)C)CCCCC3)cc2)cc1 below -0.7, do you know?
Condition not met

Please state whether B-score is below -0.7 for O=C(Cc1ccccc1[N+](=O)[O-])N1CCN(Cc2ccc3c(c2)OCO3)CC1
Condition not met

Please indicate whether the reported B-score of Cc1cc2ccccn2c1C(C[N+](=O)[O-])c1c(F)cccc1Cl (stereo not given) is strictly below -0.7.
Condition met

Quick check: B-score of COc1ccc(C(=O)CC2C(=O)N(C)C(=O)N(C)C2=O)cc1 under -0.7?
Condition not met

# strict comparison: is reported B-score < -0.7? input = COc1ccc2c(c1)[C@]13CCCCC1C(C2)N(C)CC3 (stereo not given in full)
Condition not met

Could you please tell me whether B-score recorded for COC(=O)C1=C(c2ccccc2)C[C@@H]2CC[C@H]1N2C(=O)N1CCCCC1 is less than -0.7?
Condition met

Is -0.7 strictly greater than the compound's reported B-score? compound: COc1cccc(N2C(=O)NC(=O)/C(=C\c3cn(C)c4ccccc34)C2=O)c1
Condition not met

Consider CN(c1ccccc1)c1ccc([N+](=O)[O-])c2nonc12 . Does its B-score lie strictly below -0.7?
Condition met

Please indicate whether the reported B-score of COC(=O)C1=C(c2cc3ccccc3s2)C[C@@H]2CC[C@H]1N2C(=O)NCc1cccc2ccccc12 is strictly below -0.7.
Condition not met
